assay: 1-Octanol-sodium phosphate buffer partition coefficient, log P of the compound at pH 7.4 after 4 mins; assay type: physicochemical
Entries annotated with measured logD at 4 min
Give only the figure.

Worked cases, answers included:
>>> reading("CN(C)C[C@H]1[C@@H](c2ccc(Cl)cc2)C[C@@H]2CC[C@H]1N2CC[18F]")
1.88
>>> reading("CN(CC[18F])C[C@H]1[C@@H](c2ccc(Cl)cc2)C[C@@H]2CC[C@H]1N2C")
1.52
>>> reading("CN(C)C[C@H]1[C@@H](c2ccc(Cl)cc2)C[C@@H]2CC[C@H]1N2CCC[18F]")
1.98

Qu. Give logD at 4 min for `CN(C)C(=O)[C@H]1[C@@H](c2ccc(Cl)cc2)C[C@@H]2CC[C@H]1N2CC[18F]`
Ans. -0.11

Qu. Give logD at 4 min for `CN(C)C(=O)[C@H]1[C@@H](c2ccc(Cl)cc2)C[C@@H]2CC[C@H]1N2CCC[18F]`
Ans. -0.07

Qu. Give logD at 4 min for `CN(CCC[18F])C[C@H]1[C@@H](c2ccc(Cl)cc2)C[C@@H]2CC[C@H]1N2C`
Ans. 1.72

----------
molecular target: Sodium-dependent dopamine transporter (Homo sapiens, UniProt Q01959)
Sequence (Q01959 whole entry): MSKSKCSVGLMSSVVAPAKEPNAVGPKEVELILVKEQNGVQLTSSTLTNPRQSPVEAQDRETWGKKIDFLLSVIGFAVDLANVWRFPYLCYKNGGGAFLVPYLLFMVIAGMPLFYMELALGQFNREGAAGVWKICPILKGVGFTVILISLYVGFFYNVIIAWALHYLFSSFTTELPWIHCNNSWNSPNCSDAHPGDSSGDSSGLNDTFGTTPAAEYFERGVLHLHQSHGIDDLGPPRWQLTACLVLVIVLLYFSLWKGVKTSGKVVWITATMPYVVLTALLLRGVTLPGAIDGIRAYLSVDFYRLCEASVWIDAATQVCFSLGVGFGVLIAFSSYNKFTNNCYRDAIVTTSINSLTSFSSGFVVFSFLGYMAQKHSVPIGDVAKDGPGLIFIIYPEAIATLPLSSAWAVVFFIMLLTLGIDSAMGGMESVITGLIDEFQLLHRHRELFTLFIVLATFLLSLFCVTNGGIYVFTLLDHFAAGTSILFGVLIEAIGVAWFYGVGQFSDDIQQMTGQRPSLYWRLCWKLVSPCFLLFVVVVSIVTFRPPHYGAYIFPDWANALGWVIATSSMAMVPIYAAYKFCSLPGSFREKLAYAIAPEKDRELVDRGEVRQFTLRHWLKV
TEST READOUT: Kd (nM)
# number only, unit nM dropped from output

Qu. Give Kd for `COC(=O)[C@H]1[C@@H](c2ccc(Cl)cc2)C[C@@H]2CC[C@H]1N2C/C=C/[125I]`
Ans. 1.2

----------
biological target: UniProtKB Q01959; assay: Binding affinity to DAT
TEST READOUT: pKi
// pKi here means minus log10 of the molar concentration (mol/L)

Qu. Give pKi for `Cc1ccc([C@H]2C[C@@H]3CC[C@H]([C@H]2C(=O)OCC[18F])N3C/C=C/I)cc1`
Ans. 7.92

----------
Entries annotated with measured Ki
molecular target: Sodium-dependent dopamine transporter (Homo sapiens); assay: Displacement of [125I]IPT from DAT overexpressed in LLC-PK1 cell membrane by competitive binding assay
# number only, unit nM dropped from output

Worked cases, answers included:
>>> reading("CN(CCC[18F])C[C@H]1[C@@H](c2ccc(Cl)cc2)C[C@@H]2CC[C@H]1N2C")
2.64
>>> reading("CN(C)C(=O)[C@H]1[C@@H](c2ccc(Cl)cc2)C[C@@H]2CC[C@H]1N2CCC[18F]")
135
>>> reading("CN(C)C[C@H]1[C@@H](c2ccc(Cl)cc2)C[C@@H]2CC[C@H]1N2CC[18F]")
18.3
>>> reading("CN(C)C[C@H]1[C@@H](c2ccc(Cl)cc2)C[C@@H]2CC[C@H]1N2CCC[18F]")
26.9
>>> reading("CN(C)C(=O)[C@H]1[C@@H](c2ccc(Cl)cc2)C[C@@H]2CC[C@H]1N2CC[18F]")
699

Qu. Give Ki for `CN(CCOCC[18F])C[C@H]1[C@@H](c2ccc(Cl)cc2)C[C@@H]2CC[C@H]1N2C`
Ans. 4.63

Qu. Give Ki for `CN(CC[18F])C[C@H]1[C@@H](c2ccc(Cl)cc2)C[C@@H]2CC[C@H]1N2C`
Ans. 3.79
